These measurements were taken from ChEMBL document CHEMBL5625273.

Collected IC50 values appear next to each entry.
- System: HCT-116
- protocol: Antiproliferative activity against human HCT-116 cells by MTT assay
- Assay type: functional, cell-based
observable: IC50 (µM)

molecule=CC(=O)NC1=CC(=O)O/C1=C/C=O observable=IC50 bound_sign== measured_value=27.2
molecule=NC1=CC(=O)O/C1=C/CO observable=IC50 bound_sign=> measured_value=100
molecule=CC(=O)NC1=CC(=O)O/C1=C/C(OC(C)=O)OC(C)=O observable=IC50 bound_sign== measured_value=29.9
molecule="NC1=CC(=O)OC1CCO (stereo not given)" observable=IC50 bound_sign=> measured_value=100
molecule=NC1=CC(=O)O/C1=C/C=O observable=IC50 bound_sign== measured_value=5.35

====

Collected pIC50 values appear next to each entry.
- Tested on: HT-1080
- protocol: Antiproliferative activity against human HT-1080 cells by MTT assay
- Type: functional, cell-based
pIC50: −log10 of the molar value.
observable: pIC50

compound=NC1=CC(=O)O/C1=C/CO experimental_target=HT-1080 observable=pIC50 bound_sign=< measured_value=4.00
compound=NC1=CC(=O)O/C1=C/C=O experimental_target=HT-1080 observable=pIC50 bound_sign== measured_value=4.94
compound=CC(=O)NC1=CC(=O)O/C1=C/C(OC(C)=O)OC(C)=O experimental_target=HT-1080 observable=pIC50 bound_sign== measured_value=4.39
compound=CC(=O)NC1=CC(=O)O/C1=C/C=O experimental_target=HT-1080 observable=pIC50 bound_sign== measured_value=4.34
compound="NC1=CC(=O)OC1CCO (stereo not given)" experimental_target=HT-1080 observable=pIC50 bound_sign=< measured_value=4.00
